Where do the numbers come from? From patent US20210324028A1.

- TESTED SYSTEM: T1, human IL-15Rα (human, UniProt Q13261 31-205, limits assumed)
- T1 construct: also called hIL-15Rα; IL-15 receptor alpha
- T1 sequence (Q13261 31-205 limits assumed): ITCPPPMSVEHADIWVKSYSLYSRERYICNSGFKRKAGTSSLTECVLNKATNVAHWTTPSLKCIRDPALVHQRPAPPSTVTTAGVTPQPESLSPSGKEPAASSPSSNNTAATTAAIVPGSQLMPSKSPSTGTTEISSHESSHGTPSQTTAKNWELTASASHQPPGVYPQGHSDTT
- TEST PROTOCOL: SPR, steady state
Below, each entry is listed alongside its reported Kd.
Could you write the number and then its unit?

input: Read off the recorded Kd for hIL-15 V49R/N65S (ligand) NWVNVISDLKKIEDLIQSMHIDATLYTESDVHPSCKVTAMKCFLLELQRISLESGDASIHDTVESLIILANNSLSSNGNVTESGCKECEELEEKNIKEFLQSFVHIVQMFINTGGGGSGHHHHHHHHGGGLNDIFEAQKIEWHE
output: 0.158 µM

input: Please look at this binder and report its Kd: hIL-15 V49R/H32M (ligand) NWVNVISDLKKIEDLIQSMHIDATLYTESDVMPSCKVTAMKCFLLELQRISLESGDASIHDTVENLIILANNSLSSNGNVTESGCKECEELEEKNIKEFLQSFVHIVQMFINTGGGGSGHHHHHHHHGGGLNDIFEAQKIEWHE
output: 0.134 µM

input: Indicate the recorded Kd value for this binder: hIL-15 V49R/D8K (ligand) NWVNVISKLKKIEDLIQSMHIDATLYTESDVHPSCKVTAMKCFLLELQRISLESGDASIHDTVENLIILANNSLSSNGNVTESGCKECEELEEKNIKEFLQSFVHIVQMFINTGGGGSGHHHHHHHHGGGLNDIFEAQKIEWHE
output: 0.101 µM

input: Determine from records and report Kd for hIL-15 V49R/I68W (ligand) NWVNVISDLKKIEDLIQSMHIDATLYTESDVHPSCKVTAMKCFLLELQRISLESGDASIHDTVENLIWLANNSLSSNGNVTESGCKECEELEEKNIKEFLQSFVHIVQMFINTGGGGSGHHHHHHHHGGGLNDIFEAQKIEWHE
output: 0.0937 µM
